- system_under_test: human TLR9 (Homo sapiens (Human), UniProt Q9NR96)
- Sequence (Q9NR96 26-1032): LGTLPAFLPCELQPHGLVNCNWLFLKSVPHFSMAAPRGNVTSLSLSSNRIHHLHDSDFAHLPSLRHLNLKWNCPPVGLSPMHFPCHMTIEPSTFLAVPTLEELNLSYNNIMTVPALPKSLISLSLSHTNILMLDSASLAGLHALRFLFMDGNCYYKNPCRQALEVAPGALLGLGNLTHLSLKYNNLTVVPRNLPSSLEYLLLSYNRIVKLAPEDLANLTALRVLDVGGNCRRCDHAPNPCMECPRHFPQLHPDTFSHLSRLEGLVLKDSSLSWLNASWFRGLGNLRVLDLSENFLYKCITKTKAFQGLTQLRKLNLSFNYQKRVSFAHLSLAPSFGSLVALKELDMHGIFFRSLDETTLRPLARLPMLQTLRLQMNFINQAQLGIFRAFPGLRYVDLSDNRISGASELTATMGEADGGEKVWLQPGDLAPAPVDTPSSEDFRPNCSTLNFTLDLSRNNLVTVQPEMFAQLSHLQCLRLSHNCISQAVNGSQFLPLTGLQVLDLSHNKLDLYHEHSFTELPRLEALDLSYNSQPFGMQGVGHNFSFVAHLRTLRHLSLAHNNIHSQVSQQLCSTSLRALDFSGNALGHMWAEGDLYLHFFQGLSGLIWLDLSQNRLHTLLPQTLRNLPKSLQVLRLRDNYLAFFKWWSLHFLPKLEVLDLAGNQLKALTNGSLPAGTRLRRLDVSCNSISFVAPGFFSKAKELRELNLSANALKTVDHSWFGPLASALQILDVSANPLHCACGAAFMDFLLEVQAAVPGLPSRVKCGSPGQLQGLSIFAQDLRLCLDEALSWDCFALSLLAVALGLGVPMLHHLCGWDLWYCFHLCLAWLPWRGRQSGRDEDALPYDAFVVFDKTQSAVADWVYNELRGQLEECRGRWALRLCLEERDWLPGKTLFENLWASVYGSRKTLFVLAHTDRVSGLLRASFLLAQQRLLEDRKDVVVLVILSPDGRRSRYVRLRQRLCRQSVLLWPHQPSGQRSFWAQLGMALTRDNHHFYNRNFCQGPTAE
- test: TLR9 inhibition reporter assay (HEK-Blue SEAP);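 also: SEAP driven by an IFN-β minimal promoter with NF-κB and AP-1 sites, read after 22 h, compounds dosed 0.05 nM–50 µM, inhibition scaled between agonist plus DMSO and reference-inhibitor wells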
- measurement_context: read-out: TLR9 IC50; HEK-Blue human TLR9 cells, ODN2006 5 nM
Here, each record is paired with measured IC50 data.
Number only, in µM; omit the unit.

Exercise: Return reported IC50; argument: Cc1c(-c2[nH]c3ccc(N4[C@@H]5CC[C@H]4CN(C(=O)CN4CC6(COC6)C4)C5)nc3c2C(C)C)cn2ncnc2c1C [Example 920]
Solution: 12.1

Exercise: Return reported IC50; argument: Cc1c(-c2[nH]c3ccc(N4CCN(C(=O)CNC5CC5)C[C@H]4C)nc3c2C(C)C)cn2ncnc2c1C [Example 836]
Solution: 16.4

Exercise: Return reported IC50; argument: CC[C@H]1CNCCN1c1ccc2[nH]c(-c3cn4ncnc4c(C)c3C)c(C(C)C)c2n1 [Example 988]
Solution: 3.77

Exercise: Return reported IC50; argument: Cc1c(-c2[nH]c3ccc(N4CCN(C(=O)CN5CCC6(COC6)C5)CC4)nc3c2C(C)C)cn2ncnc2c1C [Example 957]
Solution: 24.4

Exercise: Return reported IC50; argument: Cc1c(-c2[nH]c3ccc(N4C[C@H](C)N(C(=O)CN5CC6(COC6)C5)C[C@H]4C)nc3c2C(C)C)cn2ncnc2c1C [Example 935]
Solution: 5.61

Exercise: Return reported IC50; argument: Cc1c(-c2[nH]c3ccc(N4CC5(CN(CC#N)C5)C4)nc3c2C(C)C)cn2ncnc2c1C [Example 1008]
Solution: 13.3

Exercise: Return reported IC50; argument: Cc1c(-c2[nH]c3ccc(N4[C@@H]5CC[C@H]4CN(C(=O)CCN(C)C)C5)nc3c2C(C)C)cn2ncnc2c1C [Example 913]
Solution: 8.85

Exercise: Return reported IC50; argument: Cc1c(-c2[nH]c3ccc(N4C[C@H](C)N(C(=O)CN(C)C(C)C)C[C@H]4C)nc3c2C(C)C)cn2ncnc2c1C [Example 938]
Solution: 8.56

More entries:
Exercise: Return reported IC50; argument: Cc1c(-c2[nH]c3ccc(N4C[C@@H]5CC4CN5)nc3c2C(C)C)cn2ncnc2c1C [Example 984]
Solution: 3.43

Exercise: Return reported IC50; argument: COCCN1CC2(CC(c3ccc4[nH]c(-c5cn6ncnc6c(C)c5C)c(C(C)C)c4n3)C2)C1 [Example 1031]
Solution: 12.7

Exercise: Return reported IC50; argument: Cc1c(-c2[nH]c3ccc(N4CCN(C(=O)CN(C)C(C)(C)C)[C@H](C)C4)nc3c2C(C)C)cn2ncnc2c1C [Example 944]
Solution: 17.1

Exercise: Return reported IC50; argument: Cc1c(-c2[nH]c3ccc(N4CCN(C(=O)C5CN(C)C5)C[C@@H]4C)nc3c2C(C)C)cn2ncnc2c1C [Example 829]
Solution: 17.3

Exercise: Return reported IC50; argument: Cc1c(-c2[nH]c3ccc(N4CCN(C(=O)CN5CC6(COC6)C5)C[C@H]4C)nc3c2C(C)C)cn2ncnc2c1C [Example 931]
Solution: 14.9

Exercise: Return reported IC50; argument: Cc1c(-c2[nH]c3ccc(N4CCN(C(=O)CN(CCO)C(C)(C)C)C[C@H]4C)nc3c2C(C)C)cn2ncnc2c1C [Example 953]
Solution: 12

----------
- system_under_test: human TLR8 (Homo sapiens (Human), UniProt Q9NR97)
- Sequence (Q9NR97 27-1041): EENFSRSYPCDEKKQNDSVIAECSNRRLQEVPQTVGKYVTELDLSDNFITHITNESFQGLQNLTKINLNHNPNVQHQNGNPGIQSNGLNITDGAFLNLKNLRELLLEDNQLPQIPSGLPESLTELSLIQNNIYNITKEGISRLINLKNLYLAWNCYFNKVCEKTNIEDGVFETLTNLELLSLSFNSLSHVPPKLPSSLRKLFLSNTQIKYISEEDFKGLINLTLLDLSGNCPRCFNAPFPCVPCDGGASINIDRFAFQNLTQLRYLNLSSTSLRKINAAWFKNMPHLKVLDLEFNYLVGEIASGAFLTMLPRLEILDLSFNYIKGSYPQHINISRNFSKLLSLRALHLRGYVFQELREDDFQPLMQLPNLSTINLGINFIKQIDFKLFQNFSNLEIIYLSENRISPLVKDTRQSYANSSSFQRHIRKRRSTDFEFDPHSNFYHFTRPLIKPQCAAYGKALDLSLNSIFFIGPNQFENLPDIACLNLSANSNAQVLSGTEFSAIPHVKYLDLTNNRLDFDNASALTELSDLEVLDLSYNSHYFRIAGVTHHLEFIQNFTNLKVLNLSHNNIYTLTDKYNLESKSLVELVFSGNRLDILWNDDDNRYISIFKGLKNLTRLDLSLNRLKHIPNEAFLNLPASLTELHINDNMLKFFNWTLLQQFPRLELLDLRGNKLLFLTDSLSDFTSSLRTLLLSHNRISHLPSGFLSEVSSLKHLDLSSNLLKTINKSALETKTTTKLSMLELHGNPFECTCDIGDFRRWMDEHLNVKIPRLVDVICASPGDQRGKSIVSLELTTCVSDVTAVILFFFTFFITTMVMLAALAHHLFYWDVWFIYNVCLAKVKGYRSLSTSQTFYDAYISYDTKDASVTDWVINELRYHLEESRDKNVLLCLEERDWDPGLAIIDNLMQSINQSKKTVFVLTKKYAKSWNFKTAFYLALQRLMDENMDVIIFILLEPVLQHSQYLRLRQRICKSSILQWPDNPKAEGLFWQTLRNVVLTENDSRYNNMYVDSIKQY
- test: TLR8 inhibition reporter assay (HEK-Blue SEAP)
- measurement_context: read-out: TLR8 IC50; HEK-Blue human TLR8 cells, R848 15.9 μM
pIC50: −log10 of the molar value.
Each entry gets 0 (no) if its pIC50 stays under 8, and 1 (yes) if its pIC50 is 8 or above.

Completed entries (count: 5):
Exercise: Hi team, for Cc1c(-c2[nH]c3ccc(N4C[C@@H](C)N(C(=O)CCN(C)C)[C@H](C)C4)nc3c2C(C)C)cn2ncnc2c1C [Example 886] , is the recorded pIC50 at or above 8?
Solution: 1 (yes)

Exercise: Hi team, for Cc1c(-c2[nH]c3ccc(N4CCN[C@H](C)C4)nc3c2C(C)C)cn2ncnc2c1C [Example 822] , is the recorded pIC50 at or above 8?
Solution: 1 (yes)

Exercise: Hi team, for Cc1c(-c2[nH]c3ccc(N4CCN(C(=O)CCN(C)C)C[C@@H]4C)nc3c2C(C)C)cn2ncnc2c1C [Example 811] , is the recorded pIC50 at or above 8?
Solution: 1 (yes)

Exercise: Hi team, for Cc1c(-c2[nH]c3ccc(C4CC5(C4)CN(CC4(C)COC4)C5)nc3c2C(C)C)cn2ncnc2c1C [Example 1025] , is the recorded pIC50 at or above 8?
Solution: 1 (yes)

Exercise: Hi team, for CCN(C)CC(=O)N1[C@H](C)CN(c2ccc3[nH]c(-c4cn5ncnc5c(C)c4C)c(C(C)C)c3n2)C[C@H]1C [Example 927] , is the recorded pIC50 at or above 8?
Solution: 1 (yes)

More entries:
Exercise: Hi team, for Cc1c(-c2[nH]c3ccc(N4C[C@@H](C)N(CC(N)=O)C[C@H]4C)nc3c2C(C)C)cn2ncnc2c1C [Example 800] , is the recorded pIC50 at or above 8?
Solution: 0 (no)

Exercise: Hi team, for Cc1c(-c2[nH]c3ccc(C4CCC(N5CCC(F)C5)CC4)nc3c2C(C)C)cn2ncnc2c1C (stereo not shown) [Example 1062] , is the recorded pIC50 at or above 8?
Solution: 0 (no)

----------
- system_under_test: human TLR7 (Homo sapiens (Human))
- Sequence (Q9NYK1 27-1049): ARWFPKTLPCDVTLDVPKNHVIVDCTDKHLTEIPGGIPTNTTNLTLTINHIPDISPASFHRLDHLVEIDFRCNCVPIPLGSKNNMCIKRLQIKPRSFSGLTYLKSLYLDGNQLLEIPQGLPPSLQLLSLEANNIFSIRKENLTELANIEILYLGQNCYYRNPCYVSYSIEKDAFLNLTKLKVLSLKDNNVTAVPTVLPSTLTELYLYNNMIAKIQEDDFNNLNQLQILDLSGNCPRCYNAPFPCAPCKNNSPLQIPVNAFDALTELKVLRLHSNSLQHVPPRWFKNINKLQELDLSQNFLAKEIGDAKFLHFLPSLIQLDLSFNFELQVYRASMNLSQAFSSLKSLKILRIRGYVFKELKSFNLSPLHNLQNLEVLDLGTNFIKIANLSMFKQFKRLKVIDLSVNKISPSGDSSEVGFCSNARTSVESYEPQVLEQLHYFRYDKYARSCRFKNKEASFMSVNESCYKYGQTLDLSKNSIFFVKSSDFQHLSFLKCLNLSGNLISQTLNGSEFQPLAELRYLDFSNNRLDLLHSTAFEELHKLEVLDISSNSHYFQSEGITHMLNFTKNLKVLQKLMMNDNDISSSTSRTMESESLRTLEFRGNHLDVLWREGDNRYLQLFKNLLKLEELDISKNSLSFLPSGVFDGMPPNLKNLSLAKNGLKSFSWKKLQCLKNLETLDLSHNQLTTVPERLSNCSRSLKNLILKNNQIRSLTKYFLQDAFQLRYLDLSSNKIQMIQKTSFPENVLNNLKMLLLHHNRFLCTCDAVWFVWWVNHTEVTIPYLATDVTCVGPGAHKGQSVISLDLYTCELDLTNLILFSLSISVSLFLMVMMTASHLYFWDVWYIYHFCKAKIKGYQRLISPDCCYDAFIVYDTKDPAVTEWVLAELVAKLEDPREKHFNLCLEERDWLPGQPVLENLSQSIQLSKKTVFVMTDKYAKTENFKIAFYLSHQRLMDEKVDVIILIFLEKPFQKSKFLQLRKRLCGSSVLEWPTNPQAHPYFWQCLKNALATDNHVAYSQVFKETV
- test: TLR7 inhibition reporter assay (HEK-Blue SEAP)
- Format: cell-based
- measurement_context: HEK-Blue human TLR7 cells, gardiquimod 7.5 μM
pIC50: −log10 of the molar value.
Each entry gets Not fulfilled if its pIC50 stays under 9, and Fulfilled if its pIC50 is 9 or above.

Completed entries (count: 4):
Exercise: Hi team, for "Cc1c(-c2[nH]c3ccc(N4CCN(C(=O)CCN(C)C)C[C@H]4C)nc3c2C(C)C)cn2ncnc2c1C" , is the recorded pIC50 at or above 9?
Solution: Fulfilled

Exercise: Hi team, for "Cc1c(-c2[nH]c3ccc(N4C[C@@H](C)N(C(=O)CCN5CCC6(COC6)C5)C[C@@H]4C)nc3c2C(C)C)cn2ncnc2c1C" , is the recorded pIC50 at or above 9?
Solution: Fulfilled

Exercise: Hi team, for Cc1c(-c2[nH]c3ccc(N4CCN(C5CCOC5)C[C@@H]4C)nc3c2C(C)C)cn2ncnc2c1C (stereo partly shown) , is the recorded pIC50 at or above 9?
Solution: Not fulfilled

Exercise: Hi team, for "Cc1c(-c2[nH]c3ccc(N4CCN(C(=O)CN5CCC5)C[C@H]4C)nc3c2C(C)C)cn2ncnc2c1C" , is the recorded pIC50 at or above 9?
Solution: Fulfilled

We next turn to a different molecule, shown below.
Exercise: Hi team, for Cc1c(-c2[nH]c3ccc(C4CCC(N5CC(C)(C)C5)CC4)nc3c2C(C)C)cn2ncnc2c1C (stereo not shown) [Example 1052] , is the recorded pIC50 at or above 9?
Solution: Not fulfilled

----------
- system_under_test: human TLR8 (Homo sapiens (Human), UniProt Q9NR97)
- test: TLR8 inhibition reporter assay (HEK-Blue SEAP)
- measurement_context: read-out: TLR8 IC50; HEK-Blue cells overexpressing human TLR8, R848 15.9 μM stimulation, SEAP reporter
Here, each record is paired with measured IC50 data.

Exercise: Return reported IC50; argument: Cc1cc(-c2[nH]c3ccc(C4CCC(NC5COC5)CC4)nc3c2C(C)C)cn2ncnc12 (stereo not shown) [Example 279]
Solution: 1.4 nM

Exercise: Return reported IC50; argument: CC(C)c1c(-c2cn(C)c3ncncc23)[nH]c2ccc(C3CCC(NC4CCOCC4)CC3)nc12 (stereo not shown) [Example 305]
Solution: 16 nM

Exercise: Return reported IC50; argument: Cc1c(-c2[nH]c3ccc(N4CC(NC(=O)CN(C)C)C4)nc3c2C(C)C)cn2ncnc2c1C [Example 15]
Solution: 4.3 nM

More entries:
Exercise: Return reported IC50; argument: Cc1c(-c2[nH]c3ccc(C4CCC(NC(C)C)CC4)nc3c2C(C)C)cn2ncnc2c1C (stereo not shown) [Example 358]
Solution: 2.8 nM

Exercise: Return reported IC50; argument: Cc1c(-c2[nH]c3ccc(N4CCNCC4)nc3c2C(C)C)cn2ncnc2c1C [Example 2]
Solution: 0.27 nM

Exercise: Return reported IC50; argument: CNC1CCC(c2ccc3[nH]c(-c4cn(C)c5ncncc45)c(C(C)C)c3n2)CC1 (stereo not shown) [Example 301]
Solution: 42 nM

Exercise: Return reported IC50; argument: COc1cc(-c2[nH]c3ccc(C4CCC(N5CCCC5)CC4)nc3c2C(C)C)cn2ncnc12 (stereo not shown) [Example 199]
Solution: 6.4 nM

Exercise: Return reported IC50; argument: Cc1c(-c2[nH]c3ccc(N4CCCC(NC5COC5)C4)nc3c2C(C)C)cn2ncnc2c1C (stereo not shown) [Example 86]
Solution: 2.9 nM

Exercise: Return reported IC50; argument: Cc1c(-c2[nH]c3ccc(N4CCN(C(=O)CN5CCC5)CC4)nc3c2C(C)C)cn2ncnc2c1C [Example 146]
Solution: 2.5 nM

Exercise: Return reported IC50; argument: Cc1c(-c2[nH]c3ccc(N4CC(N(C)C(=O)CN(C)C)C4)nc3c2C(C)C)cn2ncnc2c1C [Example 25]
Solution: 117 nM

Exercise: Return reported IC50; argument: Cc1cc(-c2[nH]c3ccc(C4CCC(N5CC6(COC6)C5)CC4)nc3c2C(C)C)cn2ncnc12 (stereo not shown) [Example 281]
Solution: 1.7 nM

Exercise: Return reported IC50; argument: CNC1CCC(c2ccc3[nH]c(-c4cn(CCO)c5ncccc45)c(C(C)C)c3n2)CC1 (stereo not shown) [Example 295]
Solution: 11 nM

Exercise: Return reported IC50; argument: CC(C)c1c(-c2cn(C)c3ncccc23)[nH]c2ccc(C3CCC(NC4CC4)CC3)nc12 (stereo not shown) [Example 243]
Solution: 9.5 nM

Exercise: Return reported IC50; argument: COc1cc(-c2[nH]c3ccc(N4CCN(CCC(C)C)CC4)nc3c2C(C)C)cn2ncnc12 [Example 110]
Solution: 0.76 nM

Exercise: Return reported IC50; argument: COc1cc(-c2[nH]c3ccc(C4CCC(N(C)C)CC4)nc3c2C(C)C)cn2ncnc12 (stereo not shown) [Example 179]
Solution: 7 nM

Exercise: Return reported IC50; argument: Cc1c(-c2[nH]c3ccc(C4CCC(N(C)C)CC4)nc3c2C(C)C)cn2ncnc2c1C (stereo not shown) [Example 353]
Solution: 0.96 nM
